These data points were gathered from PubChem BioAssay (NCI).

- System: NCI-H460 lung
- assay: NCI-60 one-dose screen, 48 h (100 = growth as untreated, 0 = no growth, -100 = all killed)
- experimental context: 10 µM unless noted
About 83,000 compounds went through this panel and 20% of them were active in at least one assay; those are over-represented in the sample as a whole.
Each entry below carries its reported growth.
readout label: growth (%)

N#Cc1ccccc1-c1ccc(CN2C(=O)S/C(=C\c3ccc(Br)cc3)C2=O)cc1: 106
O=C(/C=C/c1cccc(Oc2ccccc2)c1)c1ccc(Nc2nc(Nc3ccc(F)cc3)nc(Nc3ccc(Cl)cc3)n2)cc1: 108
CNC(=O)c1cc(Oc2ccc3c(c2)sc2nc(-c4ccc(NC(=O)[C@@H](NC(=O)OC)C(C)C)cc4)cn23)ccn1: 87.6
O=C(/C=C/C12c3ccccc3C(c3ccccc31)C1C(=O)NC(=O)C12)c1ccc(I)cc1 (centres undefined): 44.8
Cc1cccc(NC(=O)Cn2cc(CN3CCN(c4ccnc5cc(Cl)ccc45)CC3)nn2)c1: 94
COc1cc2c(c(OC)c1OC)CCC(c1cccc(C(=O)Nc3ccc(Br)cc3)c1)O2 (centres undefined): 84
COc1ccc(C(=O)/C=C/c2ccccc2)cc1S(N)(=O)=O: 53.6
Brc1ccc(Nc2nc(Nc3cnc4ccccc4c3)c3[nH]cnc3n2)cc1: 65
O=C(O)CC(C(=O)O)/C(=C\c1ccccc1)c1ccccc1 (centres undefined): 106
